Listed here: items and their measured Ki.
Molecular target: cloned human 5-HT6 receptor (Homo sapiens, UniProt P50406)
Construct: host or cells: HeLa cells (G-418 selected); membranes prepared from them
Sequence (P50406 whole entry): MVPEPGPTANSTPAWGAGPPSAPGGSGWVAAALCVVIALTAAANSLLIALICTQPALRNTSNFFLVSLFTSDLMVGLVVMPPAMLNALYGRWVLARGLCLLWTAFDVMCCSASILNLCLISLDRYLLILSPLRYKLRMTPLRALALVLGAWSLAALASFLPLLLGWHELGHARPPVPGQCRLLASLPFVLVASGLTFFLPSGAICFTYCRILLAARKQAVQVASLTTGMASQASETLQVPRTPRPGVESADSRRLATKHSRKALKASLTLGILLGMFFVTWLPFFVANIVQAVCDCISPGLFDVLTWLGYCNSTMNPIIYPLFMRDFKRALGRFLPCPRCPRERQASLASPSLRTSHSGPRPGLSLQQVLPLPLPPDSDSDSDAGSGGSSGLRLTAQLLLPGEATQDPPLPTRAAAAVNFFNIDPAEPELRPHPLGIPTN
Assay: 5-HT6 receptor binding assay ([3H]-LSD, SPA)
Conditions: membranes of Hela cells containing cloned human 5-HT6 receptor; [3H]-LSD radioligand; Ki from estimated IC50 by Cheng-Prusoff
Provide only the numeric value, understood in nM.

>>> reported_result("CC(C)NCCOc1cccc2c1c1cccc3c1n2C(c1ccccc1)CO3 (centres unmarked)")
7.8

Attention now turns to another entry.
query: Using cloned human 5-HT6 receptor (Homo sapiens, UniProt P50406) as the test system, report measured Ki of `NCCOc1cccc2c1c1cccc3c1n2[C@H](c1ccccc1)CO3` .
result: 1.8

* * *

Listed here: items and their measured melting point.
Counter-ions that a name gives are not always drawn.
Provide only the numeric value, understood in °C.

>>> reported_result("c1ccc(C2COc3cccc4c5c(OCCN6CCNCC6)cccc5n2c34)cc1 (stereo not drawn)")
72

query: Tell us which melting point value is on record for NCCOc1cccc2c1c1cccc3c1n2[C@H](c1ccccc1)CO3 (as salt: sulfonic acid salt)
result: 236

query: Tell us which melting point value is on record for CN1CCN(CCOc2cccc3c2c2cccc4c2n3C(c2ccccc2)CO4)CC1 (stereo not drawn)
result: 57

query: Tell us which melting point value is on record for CCNCCOc1cccc2c1c1cccc3c1n2C(c1ccccc1)CO3.O=C(O)/C=C\C(=O)O (stereo not drawn)
result: 105
